# Lookup of reported activity at 0.0002 µM keyed by entry
test system: granulocytes (Gran-lin); assay: MLTA, Gran: concentration-response and QSP model fit; type: cell-based, human; conditions: Homo sapiens, 144 h; dose 0.2 nM, 6 days, normalized to vehicle control; read-out: Gran normalized cell count
Write the number in % without appending the unit.

compound	activity at 0.0002 µM, %
CCN1CCN(Cc2ccc(Nc3ncc(F)c(-c4cc(F)c5nc(C)n(C(C)C)c5c4)n3)nc2)CC1 [abemaciclib]	101
CC(=O)c1c(C)c2cnc(Nc3ccc(N4CCNCC4)cn3)nc2n(C2CCCC2)c1=O [palbociclib]	94.7
CCc1cnn2c(NCc3ccc[n+]([O-])c3)cc(N3CCCC[C@H]3CCO)nc12 [dinaciclib]	96.8
CN(C)C(=O)c1cc2cnc(Nc3ccc(N4CCNCC4)cn3)nc2n1C1CCCC1 [ribociclib]	92.9
CC(=O)O[C@@]12CO[C@@H]1C[C@H](O)[C@@]1(C)C(=O)[C@H](O)C3=C(C)[C@@H](OC(=O)[C@H](O)[C@@H](NC(=O)OC(C)(C)C)c4ccccc4)C[C@@](O)([C@@H](OC(=O)c4ccccc4)[C@H]21)C3(C)C [docetaxel]	99.7

Form entry - test system: granulocytes (Gran-lin); read-out: activity at 0.0002 µM; compound: CC(=O)O[C@H]1C(=O)[C@@]2(C)[C@H]([C@H](OC(=O)c3ccccc3)[C@]3(O)C[C@H](OC(=O)[C@H](O)[C@@H](NC(=O)c4ccccc4)c4ccccc4)C(C)=C1C3(C)C)[C@]1(OC(C)=O)CO[C@@H]1C[C@@H]2O [paclitaxel]
104

Form entry - test system: granulocytes (Gran-lin); read-out: activity at 0.0002 µM; compound: CS(=O)(=O)N1CCN(Cc2cc3nc(-c4cccc5[nH]ncc45)nc(N4CCOCC4)c3s2)CC1 [pictilisib]
99.2

Form entry - test system: granulocytes (Gran-lin); read-out: activity at 0.0002 µM; compound: O=C1CCC(N2C(=O)c3ccccc3C2=O)C(=O)N1 (centres unmarked) [thalidomide]
85
